Values were extracted from patent US20070293656A1.

# Measured on: T1, human collagen type I (acid soluble, extracted from placenta, Sigma C7774) (human, UniProt P02452 162-1218; P08123 80-1119)
# T1 construct: gelled and dried as a fibril film in the assay; also called dried human collagen; h-Collagen
# Experimental protocol: dried collagen assay
Bridge positions count the residues as written; N and C are the ends. Ends that are not written are not given here.
Readout: % bound (%)
Hi! Could you send only the number? It should be in %, unit omitted.

// below: answered binders
Binder: GWTCSQPGANVWNCTMQ (disulfide 4-14 (inferred)) [SEQ ID NO: 85]
Readout: % bound
Observed result: 3
//
Binder: EWHCVFIQGDWLCNSG (disulfide 4-13 (inferred)) [SEQ ID NO: 72]
Readout: % bound
Observed result: 1
//
Binder: AWDCSGNIPTWYCRRL (disulfide 4-13 (inferred)) [SEQ ID NO: 23]
Readout: % bound
Observed result: 44
//
Binder: YWVCGGDHQSWHCSHP (disulfide 4-13 (inferred)) [SEQ ID NO: 35]
Readout: % bound
Observed result: 8
//
Binder: WRCDGDAHDWHCDWF (disulfide 3-12 (inferred)) [SEQ ID NO: 26]
Readout: % bound
Observed result: 25

Turning now to a further record.
Query: Query (binder): VWACRGGTTNWHCDL (disulfide 4-13 (inferred)) [SEQ ID NO: 41] ; field requested: % bound
Response: 1
